- subjectOfTest: NK3 receptor (Homo sapiens, UniProt P29371)
- Construct: expressed in transfected cells; host or cells: CHO cell line, plasma membrane preparation
- Sequence (P29371 whole entry): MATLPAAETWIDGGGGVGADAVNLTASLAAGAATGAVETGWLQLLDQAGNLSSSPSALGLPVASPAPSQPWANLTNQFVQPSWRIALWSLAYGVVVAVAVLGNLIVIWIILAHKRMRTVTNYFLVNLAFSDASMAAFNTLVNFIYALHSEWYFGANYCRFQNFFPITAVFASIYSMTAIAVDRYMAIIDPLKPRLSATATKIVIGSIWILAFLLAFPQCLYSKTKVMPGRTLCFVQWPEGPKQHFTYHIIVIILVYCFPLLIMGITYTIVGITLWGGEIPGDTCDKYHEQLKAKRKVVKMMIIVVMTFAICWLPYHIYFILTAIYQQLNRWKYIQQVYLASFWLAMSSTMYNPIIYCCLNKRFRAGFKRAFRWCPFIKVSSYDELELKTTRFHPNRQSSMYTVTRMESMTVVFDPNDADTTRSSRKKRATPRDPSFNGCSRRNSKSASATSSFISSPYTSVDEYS
- protocolDetails: NK binding affinity, scintillation proximity assay (SPA), 125I [MePhe7]-NKB
- conditionsUsed: plasma membrane from CHO cell lines expressing NK3, read-out: NK3 pKi (converted)
experimentalReadout: Ki (nM)

// below: answered compounds
Q) What value of Ki has been recorded for this entry: "O=C(N[C@H](c1cccc(F)c1)C1CC1)c1c(Cn2ncnn2)c(-c2ccccc2)nc2ccccc12"
A) 3.98

Q) What value of Ki has been recorded for this entry: "O=C(N[C@H](c1ccccc1)C1CC1)c1c(Cn2nccn2)c(-c2cccc(F)c2)nc2ccccc12"
A) 10

1 = O=C(N[C@H](c1ccccc1)C1CC1)c1c(Cn2ncnn2)c(-c2cccc(F)c2)nc2ccccc12
2 = O=C(N[C@H](c1cccc(F)c1)C1CC1)c1c(Cn2nccn2)c(-c2ccccc2)nc2ccccc12
Q) Of 1 and 2 , whose reported Ki is the larger number? Mark your answer with the label of the selected entry.
A) 1
(1: 10 nM, 2: 2.51 nM)

###

- subjectOfTest: NK1 receptor (Homo sapiens)
- Construct: expressed in transfected cells; host or cells: CHO cell line, plasma membrane preparation
- Sequence (P25103 whole entry): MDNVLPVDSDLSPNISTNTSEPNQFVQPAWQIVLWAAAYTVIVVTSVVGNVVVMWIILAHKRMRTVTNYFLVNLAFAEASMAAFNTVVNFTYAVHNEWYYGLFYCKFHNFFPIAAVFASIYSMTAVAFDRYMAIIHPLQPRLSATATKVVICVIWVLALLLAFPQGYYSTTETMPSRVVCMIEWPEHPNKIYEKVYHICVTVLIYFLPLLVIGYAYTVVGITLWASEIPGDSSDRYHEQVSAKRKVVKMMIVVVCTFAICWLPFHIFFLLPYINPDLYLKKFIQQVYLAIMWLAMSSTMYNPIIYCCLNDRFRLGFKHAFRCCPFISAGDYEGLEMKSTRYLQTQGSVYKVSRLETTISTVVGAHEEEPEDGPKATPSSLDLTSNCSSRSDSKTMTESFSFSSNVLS
- protocolDetails: NK binding affinity, scintillation proximity assay (SPA), 125I Substance P
- conditionsUsed: plasma membrane from CHO cell lines expressing NK1, read-out: NK1 pKi (converted)
experimentalReadout: Ki (nM)

Q) Item "O=C(N[C@H](c1ccccc1)C1CC1)c1c(Cn2nccn2)c(-c2cccc(F)c2)nc2ccccc12" with NK1 receptor (Homo sapiens) - Ki?
A) 1000

I = O=C(N[C@H](c1cccc(F)c1)C1CC1)c1c(Cn2ncnn2)c(-c2ccccc2)nc2ccccc12
II = O=C(N[C@H](c1cccc(F)c1)C1CC1)c1c(Cn2nccn2)c(-c2ccccc2)nc2ccccc12
Q) Of I and II , whose reported Ki is the larger number? Mark your answer with the label of the selected entry.
A) I

###

- subjectOfTest: NK2 receptor (Homo sapiens, UniProt P21452)
- Construct: expressed in transfected cells; host or cells: CHO cell line, plasma membrane preparation
- Sequence (P21452 whole entry): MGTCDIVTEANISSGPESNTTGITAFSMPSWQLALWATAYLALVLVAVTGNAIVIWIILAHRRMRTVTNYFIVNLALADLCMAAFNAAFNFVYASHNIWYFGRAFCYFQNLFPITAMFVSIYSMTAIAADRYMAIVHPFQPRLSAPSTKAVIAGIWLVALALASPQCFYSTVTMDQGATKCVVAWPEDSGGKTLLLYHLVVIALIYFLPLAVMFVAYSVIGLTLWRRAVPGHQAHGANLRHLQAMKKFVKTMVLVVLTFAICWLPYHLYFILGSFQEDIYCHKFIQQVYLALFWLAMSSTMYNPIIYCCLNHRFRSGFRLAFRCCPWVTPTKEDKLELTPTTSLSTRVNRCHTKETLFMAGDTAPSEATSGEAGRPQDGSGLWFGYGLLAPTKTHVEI
- protocolDetails: NK binding affinity, scintillation proximity assay (SPA), 125I NKA
- conditionsUsed: plasma membrane from CHO cell lines expressing NK2, read-out: NK2 pKi (converted)
experimentalReadout: Ki (nM)

// below: answered molecules
Q) What value of Ki has been recorded for this entry: O=C(N[C@H](c1cccc(F)c1)C1CC1)c1c(Cn2ncnn2)c(-c2ccccc2)nc2ccccc12 [Example 35]
A) 251

Q) What value of Ki has been recorded for this entry: O=C(N[C@H](c1ccccc1)C1CC1)c1c(Cn2ncnn2)c(-c2cccc(F)c2)nc2ccccc12 [Example 45]
A) 251

A = O=C(N[C@H](c1ccccc1)C1CC1)c1c(Cn2nccn2)c(-c2cccc(F)c2)nc2ccccc12 [Example 1]
B = O=C(N[C@H](c1cccc(F)c1)C1CC1)c1c(Cn2nccn2)c(-c2ccccc2)nc2ccccc12 [Example 37]
Q) Of A and B , whose reported Ki is the larger number? Mark your answer with the label of the selected entry.
A) A

###

- protocolDetails: Measurement of brain exposure
- Format: in vivo
- conditionsUsed: rats, orally dosed 3 mg/kg as 1% methylcellulose suspension; brain homogenate concentration vs time over 12 hr
experimentalReadout: Brain Exposure (AUC, h · ng/g brain)

Q) What value of Brain Exposure (AUC, h · ng/g brain) has been recorded for this entry: O=C(N[C@H](c1ccccc1)C1CC1)c1c(Cn2nccn2)c(-c2cccc(F)c2)nc2ccccc12 [Example 1]
A) 1896

Q) What value of Brain Exposure (AUC, h · ng/g brain) has been recorded for this entry: O=C(N[C@H](c1cccc(F)c1)C1CC1)c1c(Cn2ncnn2)c(-c2ccccc2)nc2ccccc12 [Example 35]
A) 2361

Q) What value of Brain Exposure (AUC, h · ng/g brain) has been recorded for this entry: O=C(N[C@H](c1cccc(F)c1)C1CC1)c1c(Cn2nccn2)c(-c2ccccc2)nc2ccccc12 [Example 37]
A) 2091

Q) What value of Brain Exposure (AUC, h · ng/g brain) has been recorded for this entry: O=C(N[C@H](c1ccccc1)C1CC1)c1c(Cn2ncnn2)c(-c2cccc(F)c2)nc2ccccc12 [Example 45]
A) 1900
